biological target: Protein kinase C beta type (Mus musculus); test: Inhibition of PKCbeta in mouse B cells assessed as reduction in IgM-stimulated cell proliferation
ENDPOINT NAME: IC50 (nM)

CN(C)Cc1ccc2ccc(Cl)c(C3=C(c4cn(C)c5ccccc45)C(=O)NC3=O)c2c1
296
CN1CCN(c2nc(C3=C(c4c[nH]c5ccccc45)C(=O)NC3=O)c3ccccc3n2)CC1 [Sotrastaurin]
234
